These entries and their values trace back to patent US11420947B2.

Target: HDAC9 (Homo sapiens, UniProt Q9UKV0)
Sequence (Q9UKV0 1-1066 isoform Q9UKV0-5): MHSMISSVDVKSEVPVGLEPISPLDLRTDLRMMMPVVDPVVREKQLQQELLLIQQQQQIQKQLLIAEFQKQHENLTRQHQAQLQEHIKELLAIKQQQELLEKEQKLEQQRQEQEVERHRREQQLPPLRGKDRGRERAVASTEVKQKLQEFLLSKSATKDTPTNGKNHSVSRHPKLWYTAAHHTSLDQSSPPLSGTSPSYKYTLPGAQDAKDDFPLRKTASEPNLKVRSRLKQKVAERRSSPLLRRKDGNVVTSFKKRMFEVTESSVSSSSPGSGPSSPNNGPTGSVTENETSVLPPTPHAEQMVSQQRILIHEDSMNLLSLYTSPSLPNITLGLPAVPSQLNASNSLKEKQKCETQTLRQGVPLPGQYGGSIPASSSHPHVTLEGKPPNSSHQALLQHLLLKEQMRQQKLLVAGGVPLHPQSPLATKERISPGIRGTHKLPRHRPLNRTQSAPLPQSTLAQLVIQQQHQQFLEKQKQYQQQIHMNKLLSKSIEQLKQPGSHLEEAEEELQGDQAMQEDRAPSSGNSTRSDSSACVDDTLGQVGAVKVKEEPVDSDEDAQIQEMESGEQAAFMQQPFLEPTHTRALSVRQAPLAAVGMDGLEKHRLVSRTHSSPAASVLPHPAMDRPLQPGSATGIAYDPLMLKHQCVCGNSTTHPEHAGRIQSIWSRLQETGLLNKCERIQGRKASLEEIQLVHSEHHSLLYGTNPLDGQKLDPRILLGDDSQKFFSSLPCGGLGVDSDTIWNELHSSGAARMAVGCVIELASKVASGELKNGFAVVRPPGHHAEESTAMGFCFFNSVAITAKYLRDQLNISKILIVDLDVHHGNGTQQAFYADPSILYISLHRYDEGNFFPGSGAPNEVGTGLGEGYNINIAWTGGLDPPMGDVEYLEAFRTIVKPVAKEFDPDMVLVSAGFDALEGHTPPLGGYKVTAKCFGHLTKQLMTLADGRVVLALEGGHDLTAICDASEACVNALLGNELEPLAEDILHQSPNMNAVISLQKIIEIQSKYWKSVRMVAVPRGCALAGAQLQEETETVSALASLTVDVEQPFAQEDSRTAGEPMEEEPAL
measurement name: pIC50
Recall that pIC50 is obtained by taking minus log10 of the concentration measured in molar.

Ask | Would you kindly share the measured pIC50 for "CC[C@@H](C(=O)Nc1ncc(C(=O)NO)s1)c1ccc(OC)cc1" ?
Reply | 6.68

====

Test: Pharmacokinetics studies in mice
Assay type: in vivo
Settings: mouse, in vivo, SC-5 mg/kg, 5% Ethanol 5% Cremophor 90% Saline
From the text: Volume of distribution is one of the most important pharmacokinetic properties of a drug candidate and for an anticancer drug can result in increased drug distribution to the tumor.
measurement name: Cmax
Lab note: write values as number then unit, every time.

Ask | Would you kindly share the measured Cmax for "CC[C@H](C(=O)Nc1ncc(C(=O)NO)s1)c1ccc(OC)cc1" ?
Reply | 252 ng/mL

====

System: MDA-MB-468
Experiment: CellTiter-Glo cell viability assay
Format: cell-based
Details: Homo sapiens; MDA-MB-468, BREAST, TNBC, 72 hours
Protocol: Cell viability in the presence of varying concentrations of the above listed compounds at different time points was used to assess cytotoxicity and the effect of the compounds on cell proliferation. Cell viability was measured by the CellTiter-Glo® cell viability assay from Promega (Madison, Wis.). […] Following treatment, CellTiter-Glo® is added to treatment wells and incubated at 37° C. luminescence values were measured at using a Molecular Devices Spectramax microplate reader […]
The following compounds are listed with their measured pIC50 values.
Recall that pIC50 is obtained by taking minus log10 of the concentration measured in molar.

// worked examples, pIC50 included
> print(dat)
                                   compound  measurement.name  assay.result
1  CC[C@@H](C(=O)Nc1ncc(C(=O)NO)s1)c1ccc(OC)cc1             pIC50          6.26
2  CCC(C(=O)Nc1ncc(C(=O)NO)s1)c1ccc(OC)cc1 (racemic)             pIC50          7.17

Now for a further compound.
Ask | Would you kindly share the measured pIC50 for "CC[C@H](C(=O)Nc1ncc(C(=O)NO)s1)c1ccc(OC)cc1" ?
Reply | 7.22

====

Tested on: THP-1
Assay: CellTiter-Glo cell viability assay
Format: cell-based
Details: Homo sapiens; THP-1, HEMATOPIETIC, AML, 72 hours
The following molecules are listed with their measured IC50 values.

> print(dat)
                                   molecule  assay.result
1  CC[C@H](C(=O)Nc1ncc(C(=O)NO)s1)c1ccc(OC)cc1 [#1a]         32 nM
2  CC[C@@H](C(=O)Nc1ncc(C(=O)NO)s1)c1ccc(OC)cc1 [#1b]        196 nM

Now for a further molecule.
Ask | Would you kindly share the measured IC50 for CCC(C(=O)Nc1ncc(C(=O)NO)s1)c1ccc(OC)cc1 (racemic) [#1] ?
Reply | 65 nM

====

Target: HDAC3 (Homo sapiens)
Sequence (O15379 whole entry): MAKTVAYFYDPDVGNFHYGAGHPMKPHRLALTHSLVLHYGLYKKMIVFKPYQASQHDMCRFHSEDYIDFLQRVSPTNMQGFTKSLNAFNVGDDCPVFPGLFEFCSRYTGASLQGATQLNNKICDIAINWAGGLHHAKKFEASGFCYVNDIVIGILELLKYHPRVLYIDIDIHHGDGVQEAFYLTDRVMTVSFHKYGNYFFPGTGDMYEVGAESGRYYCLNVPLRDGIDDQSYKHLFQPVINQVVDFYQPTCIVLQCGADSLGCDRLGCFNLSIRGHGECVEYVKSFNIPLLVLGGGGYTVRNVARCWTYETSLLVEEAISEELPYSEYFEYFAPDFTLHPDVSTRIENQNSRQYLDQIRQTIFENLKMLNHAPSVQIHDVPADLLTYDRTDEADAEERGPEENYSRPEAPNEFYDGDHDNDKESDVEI
Sequence (Q9Y618 395-489 partner limits assumed): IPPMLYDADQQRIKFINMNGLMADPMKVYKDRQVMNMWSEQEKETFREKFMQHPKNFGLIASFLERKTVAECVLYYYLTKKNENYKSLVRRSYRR
The following molecules are listed with their measured IC50 values.

Ask | Would you kindly share the measured IC50 for CC[C@@H](C(=O)Nc1ncc(C(=O)NO)s1)c1ccc(OC)cc1 [#1b] ?
Reply | 2.6 nM

Ask | Record: CC[C@H](C(=O)Nc1ncc(C(=O)NO)s1)c1ccc(OC)cc1 [#1a]
Reply | < 0.56 nM
